- System: Pseudomonas aeruginosa
- testMethodNotes: Antimicrobial activity against Pseudomonas aeruginosa PA14 by EUCAST method
- Format: functional
measure: MIC (µg/mL)
Lab book: enter the figure in µg/mL, no units written.

Look over these answered cases.
>>> testresult("C[C@@H](O)[C@H]1C(=O)N2C(C(=O)O)=C(SCCNC=N)C[C@H]12 [IMIPENEM ANHYDROUS]")
0.5
>>> testresult("NCC[C@H](O)C(=O)N[C@@H]1C[C@H](N)[C@@H](O[C@H]2O[C@H](CN)[C@@H](O)[C@H](O)[C@H]2O)[C@H](O)[C@H]1O[C@H]1O[C@H](CO)[C@@H](O)[C@H](N)[C@H]1O")
1
>>> testresult("C[C@@H]1O[C@@H]1P(=O)(O)O")
8

Inquiry: For the molecule `NC[C@H]1O[C@H](O[C@H]2[C@H](O)[C@@H](O[C@H]3O[C@H](CO)[C@@H](O)[C@H](N)[C@H]3O)[C@H](N)C[C@@H]2N)[C@H](N)C[C@@H]1O` , what MIC is on record?
Reply text: 1
